Tested on: NCI-H522 lung
test.description: NCI tumour cell line growth inhibition, 48 h
Short version: TGI at least 30 µM is T, less is F.

Could you tell me if the measured TGI of `O=C1OC(c2ccccc2)=N/C1=C\c1cccc2ccccc12` reaches 30 µM or more?
T

Could you tell me if the measured TGI of `CC(=O)CSCc1ccccn1` reaches 30 µM or more?
T

Could you tell me if the measured TGI of `CN1C/C=C\CCOc2cccc(c2)-c2ccnc(n2)Nc2cccc(c2)C1` reaches 30 µM or more?
F

Could you tell me if the measured TGI of Cc1ccc(SCC(CF)OC(C)n2cnc3c(=O)[nH]c(N)nc32)cc1 (stereo unspecified) reaches 30 µM or more?
T

Could you tell me if the measured TGI of `O=c1[nH]nc(-c2ccccc2)c2[nH]c3c4ccccc4ccc3c12` reaches 30 µM or more?
T

Could you tell me if the measured TGI of `Cc1cccc(N=NC(=O)NNc2cccc(C)c2C)c1C` reaches 30 µM or more?
T

Could you tell me if the measured TGI of `CC(C)(C)c1cc(Br)c(O)c(CN(Cc2cc(C(C)(C)C)cc(Br)c2O)C2CCCCC2)c1` reaches 30 µM or more?
F

Could you tell me if the measured TGI of `CCN(CC)C(=O)Cn1c(C)cc2ccccc21` reaches 30 µM or more?
T

Could you tell me if the measured TGI of `COC(=O)[C@@H](C)CNS(=O)(=O)N(c1cc(C(F)(F)F)cc(C(F)(F)F)c1)C1CCN(Cc2ccc(F)cc2)CC1` reaches 30 µM or more?
T

Could you tell me if the measured TGI of `CC12C(=O)CC(CC1=O)C2(C)C` reaches 30 µM or more?
T

Could you tell me if the measured TGI of C=CCCN1CCc2c([nH]c3ccccc23)C1C(=O)O (stereo unspecified) reaches 30 µM or more?
T
